meta.source: patent US9957271B2

Recorded Emax by entry
Target: SIRT1 (Homo sapiens, UniProt Q96EB6)
Sequence (Q96EB6 1-747): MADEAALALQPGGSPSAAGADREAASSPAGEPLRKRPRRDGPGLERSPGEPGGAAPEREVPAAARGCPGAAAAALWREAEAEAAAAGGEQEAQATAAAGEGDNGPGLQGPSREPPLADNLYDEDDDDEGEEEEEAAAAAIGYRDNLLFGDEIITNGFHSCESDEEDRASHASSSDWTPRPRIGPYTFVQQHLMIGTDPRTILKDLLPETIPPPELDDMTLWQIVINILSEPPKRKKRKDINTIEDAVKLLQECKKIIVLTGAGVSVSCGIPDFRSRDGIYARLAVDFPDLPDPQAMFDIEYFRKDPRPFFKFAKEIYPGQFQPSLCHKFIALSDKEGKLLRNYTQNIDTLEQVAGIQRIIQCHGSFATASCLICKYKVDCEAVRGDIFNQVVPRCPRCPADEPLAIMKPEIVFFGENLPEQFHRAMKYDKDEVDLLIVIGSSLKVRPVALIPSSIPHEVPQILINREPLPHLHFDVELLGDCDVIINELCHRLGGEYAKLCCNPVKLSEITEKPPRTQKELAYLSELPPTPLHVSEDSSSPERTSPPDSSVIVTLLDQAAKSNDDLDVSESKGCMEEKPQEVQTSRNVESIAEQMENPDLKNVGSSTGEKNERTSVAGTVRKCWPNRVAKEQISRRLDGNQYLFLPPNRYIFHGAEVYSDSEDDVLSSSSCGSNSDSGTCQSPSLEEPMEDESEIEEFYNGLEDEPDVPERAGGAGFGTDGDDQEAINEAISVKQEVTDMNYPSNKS
Assay: TAMRA based mass spectrometry assay of SIRT1 activity
Assay type: biochemical
Details: TAMRA assay; percent maximum fold activation; read-out: TAMRA % Fold Act

Exam item: Assign Emax to the following record: O=C(Nc1cnn2ccc(-c3ccccc3OC(F)(F)F)nc12)c1ncccc1F [Compound 754]
Marked response: ≥ 350%

Exam item: Assign Emax to the following record: O=C(Nc1cnc2ccc(-c3ccccc3Cl)nn12)c1nccs1 [Compound 294]
Marked response: < 350%

Exam item: Assign Emax to the following record: Cc1cc(NC(=O)c2cnc3ccc(-c4ccccc4F)nn23)cc(C)n1 [Compound 257]
Marked response: < 350%
